Method description: In vitro bovine BBB cell-based model assay
Measurement parameters: bovine, BBB Papp, Table 1, 2 h at 37 °C, 200 μM, RP-HPLC
Residues, ends and D or L forms follow the SMILES beside them.
Measured metric: Papp at 2 h, 200 μM
Quick note: unit goes after the number.

Form field Papp at 2 h, 200 μM, entry CC(C)C[C@H](NC(=O)[C@@H](N)C(C)C)C(=O)N[C@@H](CCCNC(=N)N)C(=O)N1CCC[C@H]1C(=O)N1CCC[C@H]1C(=O)N1CCC[C@H]1C(=O)N[C@H](C(=O)N[C@@H](CC(C)C)C(=O)N[C@@H](CCCNC(=N)N)C(=O)N1CCC[C@H]1C(=O)N1CCC[C@H]1C(=O)N1CCC[C@H]1C(=O)N[C@H](C(=O)N[C@@H](CC(C)C)C(=O)N[C@@H](CCCNC(=N)N)C(=O)N1CCC[C@H]1C(=O)N1CCC[C@H]1C(=O)N1CCC[C@H]1C(=O)O)C(C)C)C(C)C [SAP, H-(VLRPPP)3-OH] (H-VLRPPPVLRPPPVLRPPP-OH) : 5.5 ×10⁻⁶ cm/s

So, "CC[C@H](C)[C@H](NC(=O)[C@H](C)NC(=O)[C@@H](N)Cc1c[nH]cn1)C(=O)N[C@@H](Cc1ccc(O)cc1)C(=O)N1CCC[C@H]1C(=O)N[C@@H](CCCNC(=N)N)C(=O)N[C@@H](Cc1c[nH]cn1)C(N)=O" ? Its Papp at 2 h, 200 μM was 18 ×10⁻⁶ cm/s

---

Method description: Peptide stability in human serum
Type: in vitro ADME
Measurement parameters: male, human serum diluted with HBSS; human serum, 24 h, RP-HPLC
Measured metric: half-life

molecule="CC[C@H](C)[C@@H](C(=O)N(C)[C@@H](Cc1ccc(O)cc1)C(=O)N1CCC[C@H]1C(=O)N[C@@H](CCCNC(=N)N)C(=O)N(C)[C@@H](Cc1c[nH]cn1)C(N)=O)N(C)C(=O)[C@H](C)NC(=O)[C@@H](N)Cc1c[nH]cn1 [(NMe)HAI, H-HA(NMe)I(NMe)YPR(NMe)H-NH2]" measured_metric=half-life value_measured="> 1440 min"

Now take the following molecule into account.
Consider CC[C@@H](C)[C@@H](NC(=O)[C@@H](Cc1ccc(O)cc1)NC(=O)[C@H]1CCCN1C(=O)[C@@H](CCCNC(=N)N)NC(=O)[C@H](N)Cc1c[nH]cn1)C(=O)N[C@H](C)C(=O)N[C@H](Cc1c[nH]cn1)C(N)=O [rD-HAI, H-hrpyiah-NH2] . Its measured half-life is > 1440 min

---

Method description: In vitro bovine BBB cell-based model assay
Measurement parameters: bovine, BBB Papp, Table 2, 2 h at 37 °C, 200 μM, RP-HPLC
Papp at 2 h, 200 μM for assorted compounds
Kindly write the number and append the unit.

compound_structure=CC[C@H](C)[C@@H](C(=O)N(C)[C@@H](Cc1ccc(O)cc1)C(=O)N1CCC[C@H]1C(=O)N[C@@H](CCCNC(=N)N)C(=O)N(C)[C@@H](Cc1c[nH]cn1)C(N)=O)N(C)C(=O)[C@H](C)NC(=O)[C@@H](N)Cc1c[nH]cn1 value_measured="11.7 ×10⁻⁶ cm/s"
compound_structure=CC[C@H](C)[C@H](NC(=O)[C@H](C)NC(=O)[C@@H](N)Cc1c[nH]cn1)C(=O)N[C@@H](Cc1ccc(O)cc1)C(=O)N1CCC[C@H]1C(=O)N[C@@H](CCCNC(=N)N)C(=O)N[C@@H](Cc1c[nH]cn1)C(N)=O value_measured="9 ×10⁻⁶ cm/s"

Given item "CC[C@@H](C)[C@@H](NC(=O)[C@@H](Cc1ccc(O)cc1)NC(=O)[C@H]1CCCN1C(=O)[C@@H](CCCNC(=N)N)NC(=O)[C@H](N)Cc1c[nH]cn1)C(=O)N[C@H](C)C(=O)N[C@H](Cc1c[nH]cn1)C(N)=O" , the value recorded as its Papp at 2 h, 200 μM is 14 ×10⁻⁶ cm/s

---

Papp at 2 h, 50 μM for assorted compounds
Method description: Caco-2 intestinal barrier model assay
Measurement parameters: human, Caco-2
Give the value in nm/s but do not write nm/s after it.

compound_structure=CC[C@H](C)[C@H](NC(=O)[C@H](C)NC(=O)[C@@H](N)Cc1c[nH]cn1)C(=O)N[C@@H](Cc1ccc(O)cc1)C(=O)N1CCC[C@H]1C(=O)N[C@@H](CCCNC(=N)N)C(=O)N[C@@H](Cc1c[nH]cn1)C(N)=O value_measured=0.002

Next:
Papp at 2 h, 50 μM in this record for "CC[C@@H](C)[C@@H](NC(=O)[C@@H](Cc1ccc(O)cc1)NC(=O)[C@H]1CCCN1C(=O)[C@@H](CCCNC(=N)N)NC(=O)[C@H](N)Cc1c[nH]cn1)C(=O)N[C@H](C)C(=O)N[C@H](Cc1c[nH]cn1)C(N)=O" : 0.0012

---

Method description: Peptide stability in human serum
Type: in vitro ADME
Measurement parameters: male, human serum diluted with HBSS; 150 μM in HBSS/human serum 90:10 (v/v), 24 h, RP-HPLC
Measured metric: half-life at 150 μM

Reported half-life at 150 μM ( CC[C@H](C)[C@H](NC(=O)[C@H](C)NC(=O)[C@@H](N)Cc1c[nH]cn1)C(=O)N[C@@H](Cc1ccc(O)cc1)C(=O)N1CCC[C@H]1C(=O)N[C@@H](CCCNC(=N)N)C(=O)N[C@@H](Cc1c[nH]cn1)C(N)=O [HAI, H-HAIYPRH-NH2] ) = ~5 min
